The measured values listed here are drawn from patent US20230374025A1.

biological target: FGFR3 V555M (Homo sapiens, UniProt P22607, V555M); construct: purchased Signalchem F06-12GG; assay: Assay I: inhibitory activity against FGFR mutants (HTRF KinEASE-TK); type: biochemical; conditions: ATP 20 μM, substrate TK 1 μM
Sequence (P22607 397-806 V555M limits assumed): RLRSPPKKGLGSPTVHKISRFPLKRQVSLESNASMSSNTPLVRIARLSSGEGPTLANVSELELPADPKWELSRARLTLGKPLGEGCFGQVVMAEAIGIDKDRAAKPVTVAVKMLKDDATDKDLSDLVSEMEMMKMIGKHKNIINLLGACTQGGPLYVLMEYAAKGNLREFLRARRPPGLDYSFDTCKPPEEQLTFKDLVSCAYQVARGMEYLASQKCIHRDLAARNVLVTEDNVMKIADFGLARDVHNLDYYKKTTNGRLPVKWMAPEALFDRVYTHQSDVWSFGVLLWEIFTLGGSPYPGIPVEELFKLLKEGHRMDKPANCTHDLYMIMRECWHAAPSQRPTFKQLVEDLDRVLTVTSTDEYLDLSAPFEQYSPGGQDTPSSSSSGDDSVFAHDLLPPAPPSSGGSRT
property-label: IC50 (nM)
State the answer as a number, implicitly in nM.

Dear colleague, I am looking for the recorded IC50 of the following compound: CC(Oc1ccc2[nH]nc(-c3nc4c([nH]3)CN(C(=O)CC#N)C4)c2c1)c1c(Cl)cncc1Cl (stereo not shown) [Compound 27] 0.4

Request: CC(C1CCN(C)CC1)N1Cc2nc(-c3n[nH]c4ccc(O[C@H](C)c5c(Cl)cncc5Cl)cc34)[nH]c2C1 (stereo partly shown) [Compound 37] 0.58

Entry C[C@@H](Oc1ccc2[nH]nc(-c3nc4c([nH]3)CN(C(=O)CN3CC(O)C3)C4)c2c1)c1c(Cl)cncc1Cl [Compound 52] please 0.14

Try C[C@@H](Oc1ccc2[nH]nc(-c3nc4c([nH]3)CN(C(=O)CN(C)C)C4)c2c1)c1c(Cl)cncc1Cl [Compound 43] next. 0.35

# iterate: C[C@@H](Oc1ccc2[nH]nc(-c3nc4c([nH]3)CN(C3CCCN(C)C3)C4)c2c1)c1c(Cl)cncc1Cl (stereo partly shown) [Compound 38] 0.15

How about CC(Oc1ccc2[nH]nc(-c3nc4c([nH]3)CN(C(=O)OCCC#N)C4)c2c1)c1c(Cl)cncc1Cl (stereo not shown) [Compound 24] ? 4.6

Query CC(Oc1ccc2[nH]nc(-c3nc4c([nH]3)CN(C(=O)CN3CCC(C#N)C3)C4)c2c1)c1c(Cl)cncc1Cl (stereo not shown) [Compound 32] next 0.19

---

target: FGFR1 V561M (Homo sapiens, UniProt P11362, V561M); construct: purchased Signalchem F04-13G; assay: Assay I: inhibitory activity against FGFR mutants (HTRF KinEASE-TK); format: biochemical; settings: ATP 5 μM, substrate TK 1 μM
Sequence (P11362 22-822 V561M): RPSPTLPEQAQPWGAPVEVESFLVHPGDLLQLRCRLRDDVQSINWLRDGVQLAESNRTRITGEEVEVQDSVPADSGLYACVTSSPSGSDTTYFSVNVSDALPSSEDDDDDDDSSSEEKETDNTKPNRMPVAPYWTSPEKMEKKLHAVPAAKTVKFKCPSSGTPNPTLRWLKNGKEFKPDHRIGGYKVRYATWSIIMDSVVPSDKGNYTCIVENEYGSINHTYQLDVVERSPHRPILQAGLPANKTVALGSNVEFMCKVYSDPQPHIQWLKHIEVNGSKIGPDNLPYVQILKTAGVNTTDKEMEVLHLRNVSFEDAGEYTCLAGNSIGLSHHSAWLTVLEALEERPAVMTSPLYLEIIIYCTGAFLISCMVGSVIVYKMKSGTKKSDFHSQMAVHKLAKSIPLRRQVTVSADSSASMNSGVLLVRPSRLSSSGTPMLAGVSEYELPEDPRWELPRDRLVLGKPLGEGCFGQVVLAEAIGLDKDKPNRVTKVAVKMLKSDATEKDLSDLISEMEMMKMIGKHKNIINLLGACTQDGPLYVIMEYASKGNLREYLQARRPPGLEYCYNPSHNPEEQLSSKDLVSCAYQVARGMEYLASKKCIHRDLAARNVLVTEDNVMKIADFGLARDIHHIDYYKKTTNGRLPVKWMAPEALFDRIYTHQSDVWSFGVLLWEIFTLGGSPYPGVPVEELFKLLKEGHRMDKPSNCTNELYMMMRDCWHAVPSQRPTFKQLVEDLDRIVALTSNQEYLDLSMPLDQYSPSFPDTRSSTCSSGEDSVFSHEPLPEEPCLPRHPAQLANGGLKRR
Please go through the items and note down their IC50.
Express the result in nM but write the number alone.

Suppose we examine the compound `C[C@@H](Oc1ccc2[nH]nc(-c3nc4c([nH]3)CN(C(=O)CN3CC(O)C3)C4)c2c1)c1c(Cl)cncc1Cl` ; what IC50 value has been reported? 0.87

Input CC(C1CCN(C)CC1)N1Cc2nc(-c3n[nH]c4ccc(O[C@H](C)c5c(Cl)cncc5Cl)cc34)[nH]c2C1 (stereo partly shown) 3.9

Try `C[C@@H](Oc1ccc2[nH]nc(-c3nc4c([nH]3)CN(C(=O)CN3CC(F)C3)C4)c2c1)c1c(Cl)cncc1Cl` next. 6.4

Request: `C[C@@H](Oc1ccc2[nH]nc(-c3nc4c([nH]3)CN(C(=O)[C@@H]3CCCCN3)C4)c2c1)c1c(Cl)cncc1Cl` 0.65

---

target: FGFR1 V561M (Homo sapiens, UniProt P11362, V561M); construct: purchased Signalchem F04-13G; experiment: Assay I: inhibitory activity against FGFR mutants (HTRF KinEASE-TK); assay type: biochemical; settings: ATP 5 μM, substrate TK 1 μM
property-label: IC50 (nM)
I only need the number, in nM, no unit after it.

Can you look up the measured IC50 of CC(Oc1ccc2[nH]nc(-c3nc4c([nH]3)CN(C(=O)CN3CCOCC3)C4)c2c1)c1c(Cl)cncc1Cl (stereo not shown) [Compound 13] for me? 0.46

Another: CC(Oc1ccc2[nH]nc(-c3nc4c([nH]3)CN(C(=O)N3CCN(C)CC3)C4)c2c1)c1c(Cl)cncc1Cl (stereo not shown) [Compound 1] 0.26

Entry to check: C[C@@H](Oc1ccc2[nH]nc(-c3nc4c([nH]3)CN(C(=O)[C@@H]3CCCN3)C4)c2c1)c1c(Cl)cncc1Cl [Compound 44] 0.82

// query: CC(Oc1ccc2[nH]nc(-c3nc4c([nH]3)CN(C(=O)[C@@H]3CCNC3)C4)c2c1)c1c(Cl)cncc1Cl (stereo partly shown) [Compound 9] 0.41

Again, but for CC(Oc1ccc2[nH]nc(-c3nc4c([nH]3)CN(C(=O)CN3CCC(O)C3)C4)c2c1)c1c(Cl)cncc1Cl (stereo not shown) [Compound 31] 0.67

Could you do the same for C[C@@H](Oc1ccc2[nH]nc(-c3nc4c([nH]3)CN(C(=O)OC3CCN(C)C3)C4)c2c1)c1c(Cl)cncc1Cl (stereo partly shown) [Compound 55] , please? 5.1

Lookup CC(Oc1ccc2[nH]nc(-c3nc4c([nH]3)CN(CCO)C4)c2c1)c1c(Cl)cncc1Cl (stereo not shown) [Compound 15] 3.6

// repeat for CC(Oc1ccc2[nH]nc(-c3nc4c([nH]3)CN(C(=O)N3CCN(C)CC3)CC4)c2c1)c1c(Cl)cncc1Cl (stereo not shown) [Compound 5] and report 0.58

Queued: CC(Oc1ccc2[nH]nc(-c3nc4c([nH]3)CN(C3CCC(O)CC3)C4)c2c1)c1c(Cl)cncc1Cl (stereo not shown) [Compound 22] 1.8

What would you report for CC(Oc1ccc2[nH]nc(-c3nc4c([nH]3)CN(C3CCN(C)CC3)C4)c2c1)c1c(Cl)cncc1Cl (stereo not shown) [Compound 3] ? 0.65

Continue with C[C@@H](Oc1ccc2[nH]nc(-c3nc4c([nH]3)CN(C(=O)CN(C)C)C4)c2c1)c1c(Cl)cncc1Cl [Compound 43] 0.26

Now try CC(Oc1ccc2[nH]nc(-c3nc4c([nH]3)CN(C(=O)OCCC#N)C4)c2c1)c1c(Cl)cncc1Cl (stereo not shown) [Compound 24] . 2.4

Item: C[C@@H](Oc1ccc2[nH]nc(-c3nc4c([nH]3)CN(C(=O)[C@@H]3CCCN3C)C4)c2c1)c1c(Cl)cncc1Cl [Compound 45] 0.81

Moving on to CC(Oc1ccc2[nH]nc(-c3nc4c([nH]3)CN(CCN3CCOCC3)C4)c2c1)c1c(Cl)cncc1Cl (stereo not shown) [Compound 12] 1.2

Now the molecule CC(Oc1ccc2[nH]nc(-c3nc4c([nH]3)CN(S(=O)(=O)C3CC3)C4)c2c1)c1c(Cl)cncc1Cl (stereo not shown) [Compound 29] 1.2

Same question for CC(Oc1ccc2[nH]nc(-c3nc4c([nH]3)CN(C(=O)N3CC[C@H](O)C3)C4)c2c1)c1c(Cl)cncc1Cl (stereo partly shown) [Compound 10] please. 0.2

Repeat with C[C@@H](Oc1ccc2[nH]nc(-c3nc4c([nH]3)CN(C(=O)CN3CC[C@H](O)C3)C4)c2c1)c1c(Cl)cncc1Cl [Compound 42] 1

Item: C[C@@H](Oc1ccc2[nH]nc(-c3nc4c([nH]3)CN(C3CCN(C)C3)C4)c2c1)c1c(Cl)cncc1Cl (stereo partly shown) [Compound 36] 1.9

Repeat with CC(Oc1ccc2[nH]nc(-c3nc4c([nH]3)CNC4)c2c1)c1c(Cl)cncc1Cl (stereo not shown) [Compound 19] 0.6

---

target: FGFR2 V564F (Homo sapiens, UniProt P21802, V564F); construct: purchased Signalchem F05-12FG; assay: Assay I: inhibitory activity against FGFR mutants (HTRF KinEASE-TK); format: biochemical; conditions: ATP 10 μM, substrate TK 1 μM
Sequence (P21802 22-821 V564F): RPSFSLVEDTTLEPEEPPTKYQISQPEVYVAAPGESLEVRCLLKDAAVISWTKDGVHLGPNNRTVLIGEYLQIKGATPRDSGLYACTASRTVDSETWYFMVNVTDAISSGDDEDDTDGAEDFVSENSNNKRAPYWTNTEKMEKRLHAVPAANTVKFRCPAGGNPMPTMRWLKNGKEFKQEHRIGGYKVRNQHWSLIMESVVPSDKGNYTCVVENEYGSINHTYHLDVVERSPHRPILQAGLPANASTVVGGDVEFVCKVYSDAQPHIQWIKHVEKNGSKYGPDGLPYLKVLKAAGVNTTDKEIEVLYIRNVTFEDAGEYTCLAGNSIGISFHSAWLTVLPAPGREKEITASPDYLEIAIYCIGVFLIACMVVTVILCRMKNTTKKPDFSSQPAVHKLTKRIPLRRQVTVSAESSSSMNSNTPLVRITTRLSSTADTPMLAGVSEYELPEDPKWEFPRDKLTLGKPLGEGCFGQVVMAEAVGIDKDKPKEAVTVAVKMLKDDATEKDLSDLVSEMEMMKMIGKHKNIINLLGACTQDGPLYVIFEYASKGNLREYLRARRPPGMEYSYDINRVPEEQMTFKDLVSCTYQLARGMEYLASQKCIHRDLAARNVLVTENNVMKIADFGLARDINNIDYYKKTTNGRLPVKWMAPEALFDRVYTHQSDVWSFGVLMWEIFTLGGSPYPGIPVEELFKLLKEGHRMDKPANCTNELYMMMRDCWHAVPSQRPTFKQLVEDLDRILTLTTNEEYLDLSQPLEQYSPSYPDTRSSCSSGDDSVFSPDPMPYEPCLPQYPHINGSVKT
Would you mind sorting the entries by IC50 according to these classes? bottom = under 0.3 nM, middle = from 0.3 nM up to 0.7 nM, top = 0.7 nM and over

Band for the recorded IC50 of CC(Oc1ccc2[nH]nc(-c3nc4c([nH]3)CN(C3CCN(C)CC3)C4)c2c1)c1c(Cl)cncc1Cl (centres unmarked) [Compound 3] ? bottom

Note, next up: CC(Oc1ccc2[nH]nc(-c3nc4c([nH]3)CN(C(=O)N3CCN(C)CC3)C4)c2c1)c1c(Cl)cncc1Cl (centres unmarked) [Compound 1] middle

Next record, please: C[C@@H](Oc1ccc2[nH]nc(-c3nc4c([nH]3)CN(C(=O)[C@@H]3CCCCN3C)C4)c2c1)c1c(Cl)cncc1Cl [Compound 47] bottom

Thanks! And CC(Oc1ccc2[nH]nc(-c3nc4c([nH]3)CN(C3CCN(C)CC3)CC4)c2c1)c1c(Cl)cncc1Cl (centres unmarked) [Compound 4] ? bottom

Now consider CC(Oc1ccc2[nH]nc(-c3nc4c([nH]3)CN(S(=O)(=O)c3cccnc3)C4)c2c1)c1c(Cl)cncc1Cl (centres unmarked) [Compound 7] . top

Consider next the compound CC(Oc1ccc2[nH]nc(-c3nc4c([nH]3)CN(C(=O)CN3CCOCC3)C4)c2c1)c1c(Cl)cncc1Cl (centres unmarked) [Compound 13] in the same way. middle

Also, C[C@@H](Oc1ccc2[nH]nc(-c3nc4c([nH]3)CN(C3CCCN(C)C3)C4)c2c1)c1c(Cl)cncc1Cl (some centres unmarked) [Compound 38] please. bottom

Then C[C@@H](Oc1ccc2[nH]nc(-c3nc4c([nH]3)CN(C(=O)CN3CC(F)C3)C4)c2c1)c1c(Cl)cncc1Cl [Compound 53] ? top

Next record, please: CC(Oc1ccc2[nH]nc(-c3nc4c([nH]3)CN(C(=O)[C@@H]3CCNC3)C4)c2c1)c1c(Cl)cncc1Cl (some centres unmarked) [Compound 9] bottom

What about this compound? CC(Oc1ccc2[nH]nc(-c3nc4c([nH]3)CN(C(=O)OCCC#N)C4)c2c1)c1c(Cl)cncc1Cl (centres unmarked) [Compound 24] top

Same question, CC(Oc1ccc2[nH]nc(-c3nc4c([nH]3)CN(S(=O)(=O)c3cnn(C)c3)C4)c2c1)c1c(Cl)cncc1Cl (centres unmarked) [Compound 18] this time top

# iterate: C[C@@H](Oc1ccc2[nH]nc(-c3nc4c([nH]3)CN(C(=O)[C@@H]3CCCCN3)C4)c2c1)c1c(Cl)cncc1Cl [Compound 46] bottom

Another compound to look at: COC(=O)N1Cc2nc(-c3n[nH]c4ccc(OC(C)c5c(Cl)cncc5Cl)cc34)[nH]c2C1 (centres unmarked) [Compound 17] top
